# testMethodNotes: Stability in mouse liver S9 fraction assessed as parent compound remaining at 1 uM measured after 4 hrs by LC-MS/MS analysis
# Type: ADME, subcellular
# conditionLabel: read-out: Stability
Assign remaining at 4 h, 1 µM to each entry below.
Answers are plain numbers, in %.

Check out these entries, answers already filled in.
**Query** Fill in: remaining at 4 h, 1 µM of O=C1c2c(O)c(=O)ccn2N([C@H](c2ccccc2)c2ccc(F)c(F)c2)[C@@H]2COCCN12 is ___
**Result** 95.2

**Query** Any idea what its remaining at 4 h, 1 µM is? The compound is O=C1c2c(O)c(=O)ccn2N([C@@H]2c3ccccc3SCc3c2ccc(F)c3F)[C@@H]2COCCN12
**Result** 87.7

**Query** Look at this compound and give its reported remaining at 4 h, 1 µM. O=C1c2c(O)c(=O)ccn2N(C(c2ccc(F)cc2)c2ccc(F)cc2)[C@@H]2COCCN12
**Result** 103

**Query** Reported remaining at 4 h, 1 µM, compound O=C1c2c(O)c(=O)ccn2N([C@@H](c2ccccc2)c2ccc(F)c(F)c2)[C@@H]2COCCN12 : ____
**Result** 92.4

**Query** // remaining at 4 h, 1 µM lookup, key: O=c1ccc2ccc(O)cc2o1
**Result** 0.83

Continuing:
**Query** Could you tell me which remaining at 4 h, 1 µM is on file for O=C1c2c(O)c(=O)ccn2N(C(c2ccccc2)c2ccccc2)[C@@H]2COCCN12 ?
**Result** 97.1

###

# System: Influenza A virus H3N2
# testMethodNotes: Antiviral activity against Influenza A virus (A/Fukui/20/2004 (H3N2)) infected in MDCK cells assessed as protection against virus-induced cell death measured 72 to 96 hrs post-infection by CellTiter-Glo assay
# Format: functional, organism-based
# conditionLabel: A/Fukui/20/2004, MDCK
pEC50: −log10 of the molar value.
propertyMeasured: pEC50

**Query** Looking for the measured pEC50 of O=C1c2c(O)c(=O)ccn2N(C(c2ccccc2)c2ccccc2)[C@@H]2COCCN12 , can you help?
**Result** 7.90 to 8.44

// next item, pEC50 requested
**Query** Dear colleague, I am looking for the recorded pEC50 of the following compound: O=C1c2c(O)c(=O)ccn2N([C@@H](c2ccccc2)c2ccc(F)c(F)c2)[C@@H]2COCCN12
**Result** 7.90 to 8.44

###

# testMethodNotes: Cmax in CD1 mouse lung at 10 mg/kg, po administered as single dose by LC-MS/MS analysis
# Format: ADME, organism-based
# Parameters: dose 10 mg/kg, route oral
propertyMeasured: Cmax (ng/g)
Give bare numbers, in ng/g.

**Query** Need Cmax of O=C1c2c(O)c(=O)ccn2N([C@@H](c2ccccc2)c2ccc(F)c(F)c2)[C@@H]2COCCN12 , thanks.
**Result** 501

**Query** Quick check: Cmax of O=C1c2c(O)c(=O)ccn2N(C(c2ccccc2)c2ccccc2)[C@@H]2COCCN12 ?
**Result** 3720

**Query** Cmax for O=C1c2c(O)c(=O)ccn2N(C(c2ccc(F)cc2)c2ccc(F)cc2)[C@@H]2COCCN12 ?
**Result** 935

Attention now turns to another entry.
**Query** Sample O=C1c2c(O)c(=O)ccn2N([C@H](c2ccccc2)c2ccc(F)c(F)c2)[C@@H]2COCCN12 — what was its Cmax?
**Result** 264

###

# testMethodNotes: Stability in rat plasma assessed as parent compound remaining at 1 uM measured after 4 hrs by LC-MS/MS analysis
# Assay type: ADME, cell-free
# conditionLabel: read-out: Stability
Task for the reader: assign each of the following compounds its reported remaining at 4 h, 1 µM.
Numbers only, in %.

Worked cases, answers included:
**Query** Any idea what its remaining at 4 h, 1 µM is? The compound is O=C1c2c(O)c(=O)ccn2N([C@@H]2c3ccccc3SCc3c2ccc(F)c3F)[C@@H]2COCCN12
**Result** 73.9

**Query** What does the record list as remaining at 4 h, 1 µM for COC(=O)OCOc1c2n(ccc1=O)N(C(c1ccccc1)c1ccccc1)[C@@H]1COCCN1C2=O ?
**Result** 0

**Query** Reported remaining at 4 h, 1 µM, compound CC(C)[N+](C)(CCOC(=O)C1c2ccccc2Oc2ccccc21)C(C)C : ____
**Result** 74.3

**Query** Name the reported remaining at 4 h, 1 µM value associated with the compound O=C1c2c(O)c(=O)ccn2N(C(c2ccccc2)c2ccccc2)[C@@H]2COCCN12
**Result** 71.4

**Query** Field request: remaining at 4 h, 1 µM | item: O=C1c2c(O)c(=O)ccn2N([C@H](c2ccccc2)c2ccc(F)c(F)c2)[C@@H]2COCCN12
**Result** 94.4

More entries:
**Query** Which remaining at 4 h, 1 µM value is on record for O=C1c2c(O)c(=O)ccn2N([C@@H](c2ccccc2)c2ccc(F)c(F)c2)[C@@H]2COCCN12 ?
**Result** 85.8

###

Please go through the items and note down their remaining at 4 h, 1 µM.
# testMethodNotes: Stability in human plasma assessed as parent compound remaining at 1 uM measured after 4 hrs by LC-MS/MS analysis
# Format: ADME, cell-free
# conditionLabel: read-out: Stability
Give bare numbers, in %.

Sample records with remaining at 4 h, 1 µM:
**Query** Which value of remaining at 4 h, 1 µM has been reported for O=C1c2c(O)c(=O)ccn2N([C@H](c2ccccc2)c2ccc(F)c(F)c2)[C@@H]2COCCN12 in the records?
**Result** 85.7

**Query** Which remaining at 4 h, 1 µM reading was recorded for the compound O=C1c2c(O)c(=O)ccn2N(C(c2ccccc2)c2ccccc2)[C@@H]2COCCN12 ?
**Result** 63.2

**Query** I would be grateful if you could share the reported remaining at 4 h, 1 µM for O=C1c2c(O)c(=O)ccn2N([C@@H](c2ccccc2)c2ccc(F)c(F)c2)[C@@H]2COCCN12 .
**Result** 90.3

Would you mind listing remaining at 4 h, 1 µM for each of the following compounds?
1. CC(C)[N+](C)(CCOC(=O)C1c2ccccc2Oc2ccccc21)C(C)C
2. COC(=O)OCOc1c2n(ccc1=O)N(C(c1ccccc1)c1ccccc1)[C@@H]1COCCN1C2=O
3. O=C1c2c(O)c(=O)ccn2N([C@@H]2c3ccccc3SCc3c2ccc(F)c3F)[C@@H]2COCCN12

**Result**
1: 1.28; 2: 8.1; 3: 89.9

###

# testMethodNotes: Protein binding in rat plasma at 1 uM measured after 4 hrs by LC-MS/MS analysis
# Type: ADME, cell-free
# conditionLabel: read-out: PPB (converted)
Would you mind telling me the reported fraction unbound at 4 h, 1 µM of each entry?
Numbers only.

Some compounds with known fraction unbound at 4 h, 1 µM results, for comparison:
**Query** Need fraction unbound at 4 h, 1 µM of COC(=O)OCOc1c2n(ccc1=O)N(C(c1ccccc1)c1ccccc1)[C@@H]1COCCN1C2=O , thanks.
**Result** 0.016

**Query** # lookup: fraction unbound at 4 h, 1 µM of O=C1c2c(O)c(=O)ccn2N(C(c2ccccc2)c2ccccc2)[C@@H]2COCCN12
**Result** 0.193

Continuing:
**Query** # query: fraction unbound at 4 h, 1 µM of entry COC(=O)OCOc1c2n(ccc1=O)N([C@@H]1c3ccccc3SCc3c1ccc(F)c3F)[C@@H]1COCCN1C2=O
**Result** 0.064

###

# testMethodNotes: Stability in simulated gastric fluid assessed as parent compound remaining at 1 uM measured after 4 hrs at pH 1.2 by LC-MS/MS analysis
# Type: physicochemical
# conditionLabel: read-out: Stability
propertyMeasured: remaining at 4 h, 1 µM (%)
Answers are plain numbers, in %.

Some solved entries appear below for comparison.
**Query** Query (compound): O=C1c2c(O)c(=O)ccn2N(C(c2ccccc2)c2ccccc2)[C@@H]2COCCN12 ; field requested: remaining at 4 h, 1 µM
**Result** 96

**Query** If you can, please state the reported remaining at 4 h, 1 µM value of COC(=O)OCOc1c2n(ccc1=O)N(C(c1ccccc1)c1ccccc1)[C@@H]1COCCN1C2=O .
**Result** 94.8

**Query** Need remaining at 4 h, 1 µM of COC(=O)OCOc1c2n(ccc1=O)N([C@@H]1c3ccccc3SCc3c1ccc(F)c3F)[C@@H]1COCCN1C2=O [BALOXAVIR MARBOXIL] , thanks.
**Result** 101

Count: 2. Required value per item: remaining at 4 h, 1 µM.
1. O=C(O)CCCc1ccc(N(CCCl)CCCl)cc1 [CHLORAMBUCIL]
2. O=C1c2c(O)c(=O)ccn2N(C(c2ccc(F)cc2)c2ccc(F)cc2)[C@@H]2COCCN12

**Result**
1. 97.2
2. 87.3

Give remaining at 4 h, 1 µM for each of the items listed below.
1. COC(=O)OCOc1c2n(ccc1=O)N([C@@H](c1ccccc1)c1ccc(F)c(F)c1)[C@@H]1COCCN1C2=O
2. COC(=O)OCOc1c2n(ccc1=O)N(C(c1ccc(F)cc1)c1ccc(F)cc1)[C@@H]1COCCN1C2=O

**Result**
1: 97.7; 2: 98.4
